Data provenance is the supplement of paper PMC8882468.

Test system: HCI-027 (organoid from a triple-negative breast cancer xenograft)
PROTOCOL_DESCRIPTION: CTG-3D luminescence at 96 h relative to day-0 seeding control (ratio to day 0); higher = more growth / less cytotoxicity; PDxO 3D drug screen (set 2), 96 h, CTG-3D normalised to day-0 seeding control.
TEST_PARAMETERS: 12.5 pM; days in culture: 145
PARAMETER: CTG-3D luminescence at 96 h

{"MOLECULE": "Nc1cc(C(F)(F)F)c(-c2cc(N3CCOCC3)nc(N3CCOCC3)n2)cn1 [buparlisib]", "EXPERIMENTAL_RESULT": 1.54}
{"MOLECULE": "C[C@@H](Nc1cc(F)cc(F)c1)c1cc(C(=O)N(C)C)cc2c(=O)cc(N3CCOCC3)oc12 [AZD-8186]", "EXPERIMENTAL_RESULT": 1.31}
{"MOLECULE": "CS(=O)(=O)CCNCc1ccc(-c2ccc3ncnc(Nc4ccc(OCc5cccc(F)c5)c(Cl)c4)c3c2)o1 [lapatinib]", "EXPERIMENTAL_RESULT": 1.6}
{"MOLECULE": "CO[C@H]1C[C@@H]2CC[C@@H](C)[C@@](O)(O2)C(=O)C(=O)N2CCCC[C@H]2C(=O)O[C@H]([C@H](C)C[C@@H]2CC[C@@H](OCCO)[C@H](OC)C2)CC(=O)[C@H](C)/C=C(\\C)[C@@H](O)[C@@H](OC)C(=O)[C@H](C)C[C@H](C)/C=C/C=C/C=C/1C [everolimus]", "EXPERIMENTAL_RESULT": 1.16}

----------
Test system: HCI-024 (organoid from a breast cancer xenograft)
PROTOCOL_DESCRIPTION: CTG-3D luminescence at 96 h relative to day-0 seeding control (ratio to day 0); higher = more growth / less cytotoxicity; PDxO 3D drug screen, 96 h, CTG-3D normalised to day-0 seeding control.
TEST_PARAMETERS: 625 fM; days in culture: 122
Known CTG-3D luminescence at 96 h of a selection of compounds

{"COMPOUND": "NC(=O)c1cccc2cn(-c3ccc([C@@H]4CCCNC4)cc3)nc12", "STUDY_TARGET": "HCI-024", "CTG-3D luminescence at 96 h": 2.15}
{"COMPOUND": "O=C(c1ccc(F)c(F)c1Nc1ccc(I)cc1F)N1CC(O)([C@@H]2CCCCN2)C1", "STUDY_TARGET": "HCI-024", "CTG-3D luminescence at 96 h": 3.01}
{"COMPOUND": "CS(=O)(=O)c1ccc(C(=O)Nc2ccc(Cl)c(-c3ccccn3)c2)c(Cl)c1", "STUDY_TARGET": "HCI-024", "CTG-3D luminescence at 96 h": 2.04}
{"COMPOUND": "CN(Cc1cnc2nc(N)nc(N)c2n1)c1ccc(C(=O)N[C@@H](CCC(=O)O)C(=O)O)cc1 [methotrexate]", "STUDY_TARGET": "HCI-024", "CTG-3D luminescence at 96 h": 2.88}

----------
Tested on: HCI-016 (organoid from a triple-negative breast cancer xenograft)
PROTOCOL_DESCRIPTION: CTG-3D luminescence at 96 h relative to day-0 seeding control (ratio to day 0); higher = more growth / less cytotoxicity; PDxO 3D drug screen, 96 h, CTG-3D normalised to day-0 seeding control.
TEST_PARAMETERS: 12.5 pM; days in culture: 153

{"COMPOUND": "Nc1ccn([C@@H]2O[C@H](CO)[C@@H](O)C2(F)F)c(=O)n1", "STUDY_TARGET": "HCI-016", "CTG-3D luminescence at 96 h": 2.99}
{"COMPOUND": "CN(Cc1cnc2nc(N)nc(N)c2n1)c1ccc(C(=O)N[C@@H](CCC(=O)O)C(=O)O)cc1 [methotrexate]", "STUDY_TARGET": "HCI-016", "CTG-3D luminescence at 96 h": 3.33}
{"COMPOUND": "Cc1cc(Nc2ncnc3ccc(NC4=NC(C)(C)CO4)cc23)ccc1Oc1ccn2ncnc2c1", "STUDY_TARGET": "HCI-016", "CTG-3D luminescence at 96 h": 2.94}
{"COMPOUND": "CCN1CCN(Cc2ccc(Nc3ncc(F)c(-c4cc(F)c5nc(C)n(C(C)C)c5c4)n3)nc2)CC1", "STUDY_TARGET": "HCI-016", "CTG-3D luminescence at 96 h": 2.82}
